- testedTarget: Cbl-b (Homo sapiens)
- Sequence (Q13191 whole entry, species assumed): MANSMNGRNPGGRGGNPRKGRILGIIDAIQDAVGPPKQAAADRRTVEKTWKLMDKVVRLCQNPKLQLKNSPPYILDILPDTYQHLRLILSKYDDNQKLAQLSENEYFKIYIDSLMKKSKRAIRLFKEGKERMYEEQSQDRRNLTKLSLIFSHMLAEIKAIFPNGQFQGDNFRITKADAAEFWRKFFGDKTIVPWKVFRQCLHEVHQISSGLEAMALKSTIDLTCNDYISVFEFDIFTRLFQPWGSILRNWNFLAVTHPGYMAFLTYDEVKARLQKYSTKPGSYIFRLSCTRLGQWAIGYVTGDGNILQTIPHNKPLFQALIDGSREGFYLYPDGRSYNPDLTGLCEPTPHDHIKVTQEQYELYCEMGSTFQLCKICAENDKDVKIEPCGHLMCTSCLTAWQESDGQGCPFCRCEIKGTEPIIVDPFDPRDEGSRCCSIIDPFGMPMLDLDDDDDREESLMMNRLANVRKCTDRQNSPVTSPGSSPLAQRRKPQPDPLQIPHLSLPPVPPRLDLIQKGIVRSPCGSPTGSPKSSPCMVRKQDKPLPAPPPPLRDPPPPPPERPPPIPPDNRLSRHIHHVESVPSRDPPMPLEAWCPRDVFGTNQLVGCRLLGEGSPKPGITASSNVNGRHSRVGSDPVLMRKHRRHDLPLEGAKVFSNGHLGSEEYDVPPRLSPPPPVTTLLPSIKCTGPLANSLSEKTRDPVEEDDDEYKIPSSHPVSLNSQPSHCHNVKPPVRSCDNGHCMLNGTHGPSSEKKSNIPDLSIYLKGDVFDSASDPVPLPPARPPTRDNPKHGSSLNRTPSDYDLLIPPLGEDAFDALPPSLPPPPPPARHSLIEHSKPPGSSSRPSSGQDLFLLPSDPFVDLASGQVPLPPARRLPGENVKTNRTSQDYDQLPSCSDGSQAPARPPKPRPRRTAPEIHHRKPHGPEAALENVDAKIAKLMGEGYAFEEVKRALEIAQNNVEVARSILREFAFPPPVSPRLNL
propertyName: IC50

compound: CC(C)Oc1cc(-c2ccc(C#N)cc2C(=O)N2CC(F)(F)C2)cc(NC(=O)c2cc(CNC[C@@H]3CCCCO3)cn(C3CC3)c2=O)n1 [Example 392]
recordedMeasurement: < 100 nM
--
compound: CN(C)Cc1cc(C(=O)Nc2cc(-c3ccc(F)cc3-c3nncn3C)cc(C3CC3)n2)c(=O)n(C2CC2)c1 [Example 33]
recordedMeasurement: < 100 nM
--
compound: CC(C)CCNCc1cc(C(=O)Nc2cc(-c3ccc(Cl)cc3C(=O)N3CC(F)(F)C3)cc(C3CC3)n2)c(=O)n(C2CC2)c1 [Example 410]
recordedMeasurement: < 100 nM
--
compound: CO[C@@H](C)CNCc1cc(C(=O)Nc2cc(-c3ccc(C)cc3C(=O)N3CC(F)(F)C3)cc(OCC(F)F)n2)c(=O)n(C2CC2)c1 [Example 349]
recordedMeasurement: < 100 nM

Request: Report IC50 for CO[C@H](C)CNCc1cc(C(=O)Nc2cc(-c3ccc(F)cc3-c3nncn3C)cc(C3CC3)n2)c(=O)n(C2CC2)c1 [Example 20]
Response: < 100 nM

Request: Report IC50 for CC(C)CNCc1cc(C(=O)Nc2cc(-c3ccc(C#N)cc3C(=O)N3CC(F)(F)C3)cc(OC(C)C)n2)c(=O)n(C2CC2)c1 [Example 97]
Response: < 100 nM
